# TEST NAME: NCI Yeast Anticancer Drug Screen. Data for the mlh1 rad18 strain (AID 175)
# EXPERIMENTAL PARAMETERS: S. cerevisiae mlh1 rad18 strain growth inhibition; at 5.0 µM (retest, dose inferred, filed as 0.5); hits give high values
This is part of a sample that, as a whole, favours compounds with a hit. Of some 79,000 tested, about 15% had one in any assay.
For each entry below, report its growth inhibition value.
Field format: number, assumed %, no unit text.

Ask | # input molecule: Cc1cc(I)nc2ccccc12 ; wanted: its growth inhibition
Reply | -2

Ask | # input molecule: CC(=O)Nc1nc(-c2ccccc2)cs1 ; wanted: its growth inhibition
Reply | -11

Ask | # input molecule: Cc1cc(=O)oc2cc(O)cc(O)c12 ; wanted: its growth inhibition
Reply | -5

Ask | # input molecule: CCOc1ccc2c(c1)/C(=C\C=C\C1CC(C)C3CC(OCC)CCC3N1CC)CC(C)N2CC (stereo unspecified) ; wanted: its growth inhibition
Reply | 0

Ask | # input molecule: CCCCCCCCCC(=O)CCCCCCCCC ; wanted: its growth inhibition
Reply | 32

Ask | # input molecule: Cc1ccc(-c2c(C#N)c(-c3ccc(C)cc3)n(NS(=O)(=O)c3ccccc3)c(=O)c2C#N)cc1 ; wanted: its growth inhibition
Reply | 33

---

# TEST NAME: NCI Yeast Anticancer Drug Screen. Data for the rad50 strain (AID 155);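 note: 0% = growth of vehicle-only cultures of the same strain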
# EXPERIMENTAL PARAMETERS: S. cerevisiae rad50 strain growth inhibition; at 50.0 µM; hits give high values
About 79,000 compounds went through this panel and 15% of them were active in at least one assay; those are over-represented in the sample as a whole.
REPORTED ENDPOINT: growth inhibition (%)
Field format: number, assumed %, no unit text.

Ask | # input molecule: Nc1ccc(Oc2ccccc2)c(Cl)c1 ; wanted: its growth inhibition
Reply | 97.6

Ask | # input molecule: CC(C)(C)c1ccc(O)c(Br)c1 ; wanted: its growth inhibition
Reply | 90.9

Ask | # input molecule: COc1ccc2nc3cc(Cl)ccc3c(NCCCCCN3CCCCC3)c2c1 ; wanted: its growth inhibition
Reply | 77.6

Ask | # input molecule: CN=C(N)N/N=C(\C)c1ccc2c(c1)Cc1ccccc1-2 ; wanted: its growth inhibition
Reply | 77.5

Ask | # input molecule: O=C(OC12CC3CC(CC(C3)C1)C2)c1ccc(NCc2cc(O)ccc2O)cc1 ; wanted: its growth inhibition
Reply | 84.7

Ask | # input molecule: C/C=C/c1cc2c(c(=O)o1)C(=O)[C@@H](O)[C@H](C)O2 ; wanted: its growth inhibition
Reply | 23.5

Ask | # input molecule: O=[N+]([O-])c1ccc(C2N(Cc3ccc(Cl)cc3)CCN2Cc2ccc(Cl)cc2)cc1 ; wanted: its growth inhibition
Reply | 82.2

Ask | # input molecule: NC(=Nc1nc(-c2ccccn2)cc2ccccc12)c1ccccn1 ; wanted: its growth inhibition
Reply | 77.2

Ask | # input molecule: N#CCc1cccc2ccccc12 ; wanted: its growth inhibition
Reply | 13.7

Ask | # input molecule: N#Cc1ccc(Br)cc1[N+](=O)[O-] ; wanted: its growth inhibition
Reply | 91.2

Ask | # input molecule: Cc1nc([N+](=O)[O-])c(Sc2nncc(-c3ccccc3)n2)n1C ; wanted: its growth inhibition
Reply | 97.3

Ask | # input molecule: O=[N+]([O-])C=C(c1ccccc1)c1ccccc1 ; wanted: its growth inhibition
Reply | 96.8

Ask | # input molecule: Cc1cccc2c(N)c3ccccc3nc12 ; wanted: its growth inhibition
Reply | 87.7

Ask | # input molecule: COc1ccc(NC(=O)/C(=C/N2C(=O)/C(=C/c3ccc(OC)c(OC)c3)NC2=S)C(C)=O)cc1 ; wanted: its growth inhibition
Reply | 54.3

Ask | # input molecule: CC1(C)N=c2cc3c(cc2N1c1ccc(Cl)cc1)=Nc1ccccc1N3c1ccc(Cl)cc1 ; wanted: its growth inhibition
Reply | 96.1

Cited source: PubChem BioAssay (NCI)
